# ASSAY_COMMENT: Plasma pharmacokinetics in cycle 1
# Format: in vivo, human
# CONDITION_LABEL: human, plasma, iv, 100 mg/m2
Structures can show the parent of a compound that is named as a salt.

{"columns": ["COMPOUND", "MEASUREMENT_UNITS", "half-life"],
 "data": [
  ["COc1cccc(OCCCN)c1-c1cc(Nc2cnc(C#N)cn2)n[nH]1 [prexasertib, Prexasertib mesylate monohydrate]", "h", 10]
]}

###

# ASSAY_COMMENT: Plasma pharmacokinetics in cycle 1
# Type: in vivo, human
# CONDITION_LABEL: human, plasma, iv, 80 mg/m2
Counter-ions that a name gives are not always drawn.

{"columns": ["COMPOUND", "half-life (h)"],
 "data": [
  ["COc1cccc(OCCCN)c1-c1cc(Nc2cnc(C#N)cn2)n[nH]1 [prexasertib, Prexasertib mesylate monohydrate]", 7.6]
]}

###

# ASSAY_COMMENT: Plasma pharmacokinetics in cycle 1
# Type: in vivo, human
# CONDITION_LABEL: human, plasma, intravenous, 150 mg/m^2, median plasma concentration 24 hours after the first dose (C-24h), RP2D (150 mg/m^2)
Structures can show the parent of a compound that is named as a salt.
REPORTED_METRIC: concentration at 24 h (ng/mL)

{"columns": ["MOLECULE", "MEAS_VALUE"],
 "data": [
  ["COc1cccc(OCCCN)c1-c1cc(Nc2cnc(C#N)cn2)n[nH]1 [prexasertib, Prexasertib mesylate monohydrate]", 13.4]
]}

###

# ASSAY_COMMENT: Plasma pharmacokinetics in cycle 1
# Format: in vivo, human
# CONDITION_LABEL: human, plasma, iv, 125 mg/m2
Where a name gives a salt, the structure may show the parent alone.

{"columns": ["COMPOUND", "AUC(0-t) [ng·h/mL]"],
 "data": [
  ["COc1cccc(OCCCN)c1-c1cc(Nc2cnc(C#N)cn2)n[nH]1 [prexasertib, Prexasertib mesylate monohydrate]", 2460]
]}

###

# ASSAY_COMMENT: Plasma pharmacokinetics in cycle 1
# Type: in vivo, human
# CONDITION_LABEL: human, plasma, iv, 125 mg/m2
Counter-ions that a name gives are not always drawn.
REPORTED_METRIC: Tmax

{"columns": ["COMPOUND", "MEAS_VALUE"],
 "data": [
  ["COc1cccc(OCCCN)c1-c1cc(Nc2cnc(C#N)cn2)n[nH]1 [prexasertib, Prexasertib mesylate monohydrate]", "1.1 h"]
]}

###

# ASSAY_COMMENT: Plasma pharmacokinetics in cycle 1
# Assay type: in vivo, human
# CONDITION_LABEL: human, plasma, iv, 150 mg/m2
Structures can show the parent of a compound that is named as a salt.
REPORTED_METRIC: Cmax (ng/mL)

{"columns": ["MOLECULE", "MEASUREMENT_UNITS", "MEAS_VALUE"],
 "data": [
  ["COc1cccc(OCCCN)c1-c1cc(Nc2cnc(C#N)cn2)n[nH]1 [prexasertib, Prexasertib mesylate monohydrate]", "ng/mL", 1700]
]}

###

# ASSAY_COMMENT: Plasma pharmacokinetics in cycle 1
# Assay type: in vivo, human
# CONDITION_LABEL: human, plasma, iv, 80 mg/m2
Where a name gives a salt, the structure may show the parent alone.
REPORTED_METRIC: AUC(0-t) (ng·h/mL)

{"columns": ["COMPOUND", "REPORTED_METRIC", "MEASUREMENT_UNITS", "MEAS_VALUE"],
 "data": [
  ["COc1cccc(OCCCN)c1-c1cc(Nc2cnc(C#N)cn2)n[nH]1 [prexasertib, Prexasertib mesylate monohydrate]", "AUC(0-t)", "ng·h/mL", 1620]
]}

Data credit: paper PMC9090141
